Biological target: HLA-A*0201 (Homo sapiens, UniProt P04439, D140Y/D185E/D98H/E176V/E277Q/G131W/G231S/I119V/I121R/I166T/I218V/L300P/L318F/N151K/N90K/P208A/P217A/Q86G/Q94H/R138H/R169H/T345S)
Assay: Peptide stabilization for HLA-A*0201
Assay type: binding
Conditions: HLA-A*0201; p53 peptides
measured metric: Peptide Binding Stability

Record `CC(C)[C@H](NC(=O)[C@H](CCCNC(=N)N)NC(=O)[C@@H](NC(=O)CNC(=O)[C@@H]1CCCN1C(=O)[C@@H]1CCCN1C(=O)[C@@H]1CCCN1C(=O)[C@@H](NC(=O)[C@@H](N)CO)[C@@H](C)O)[C@@H](C)O)C(=O)O` , field Peptide Binding Stability: <2 h

Record `CC[C@H](C)[C@H](NC(=O)[C@H](CC(C)C)NC(=O)[C@H](Cc1c[nH]cn1)NC(=O)[C@H](CCC(N)=O)NC(=O)[C@@H]1CCCN1C(=O)[C@@H]1CCCN1C(=O)[C@H](C)NC(=O)[C@H](CC(C)C)NC(=O)CN)C(=O)N[C@@H](CCCNC(=N)N)C(=O)N[C@H](C(=O)O)C(C)C` , field Peptide Binding Stability: 6 h

Record `CSCC[C@H](NC(=O)[C@@H](N)CCCNC(=N)N)C(=O)N1CCC[C@H]1C(=O)N[C@@H](CCC(=O)O)C(=O)N[C@@H](C)C(=O)N[C@@H](C)C(=O)N1CCC[C@H]1C(=O)N1CCC[C@H]1C(=O)N[C@H](C(=O)O)C(C)C` , field Peptide Binding Stability: 6 h

Record `CC(C)C[C@H](NC(=O)[C@@H](N)Cc1ccccc1)C(=O)N[C@@H](Cc1c[nH]cn1)C(=O)N[C@@H](CO)C(=O)NCC(=O)N[C@H](C(=O)N[C@@H](C)C(=O)N[C@@H](CCCCN)C(=O)N[C@@H](CO)C(=O)N[C@H](C(=O)O)C(C)C)[C@@H](C)O` , field Peptide Binding Stability: 6 h

---

Target: HLA-A*0301 (Homo sapiens)
Construct: B-cell lines used are: CAA (A*0101), EKR (A*0301), BVR (A*1101), VIJF (A*2401); endogenous in cells; host or cells: B-cell line EKR
Test: Competition based cellular binding assay, HLA-A*0301 (B-cell line EKR)
Details: HLA-A*0301; IC50 category; read-out: Peptide Binding Affinity
Where no end group is shown, it is not given here.
Assign IC50 to each entry below.

Record RAHSSHLKSK [p53 363-372] , field IC50: 5 to 15 µM

Record GGSRAHSSHLK [p53 360-370] , field IC50: 5 to 15 µM

Record RVRAMAIY [p53 156-163] , field IC50: 5 to 15 µM

Record GFLHSGTAK [p53 112-120] , field IC50: 5 to 15 µM

Record KGQSTSRHK [p53 373-381] , field IC50: 5 to 15 µM
